- Tested on: EKVX NSCLC
- testProtocol: NCI tumour cell line growth inhibition, 48 h; in the data active means GI50 below about 0.43 µM; inactive means the rest
Write down the outcome that applies. Available outcomes: T for active, F for inactive

**Query** Could you check what this test reported for C=C(C)C1CC=C(C)CC1 (stereo not given) ?
**Result** F

**Query** Could you check what this test reported for C=C1CC[C@@H]2[C@](C)(COC(C)=O)[C@H](OC(C)=O)CC[C@@]2(C)[C@@H]1CC(Nc1ccc(S(=O)(=O)Nc2cc(C)on2)cc1)C1=CCOC1=O (stereo not given in full) ?
**Result** F

###

- Test system: SNB-75 CNS
- testProtocol: NCI tumour cell line growth inhibition, 48 h
readoutName: TGI

Consider the worked cases shown below.
N#CCCN(CCC#N)c1ccc(C(N=Nc2ccccc2)=Nc2ccc(Cl)cc2)cc1    > 100 µM
CC(=O)Nc1ccc(-c2nc3ccccc3s2)cc1C    > 100 µM
Cc1[nH]n(C(=N)N)c(=O)c1CCO    > 100 µM
CSc1ccc(OCC2OC2O)cc1 (centres undefined)    > 100 µM
CC(C)(CCN=C(N)Nc1ccccn1)c1ccc(C(F)(F)F)cc1    33.8 µM

For each of the molecules below, note its TGI.
1. C[N+](C)(CCCCCC[N+](C)(C)CCCN1C(=O)c2cc3ccccc3cc2C1=O)CCCN1C(=O)c2cc3ccccc3cc2C1=O
2. CSCC[C@H](NC(=O)[C@H](CC(C)C)NC(=O)[C@@H](Cc1ccccc1)NC(=O)CNC(=O)[C@@H](NC(=O)[C@H](C)NC(=O)[C@H](Cc1c[nH]c2ccccc12)NC(=O)[C@H](CCC(N)=O)NC(=O)[C@H](N)CC(N)=O)C(C)C)C(N)=O
3. CCOP(=O)(Nc1ccccc1P(=O)(OCC)OCC)OCC
4. Cc1cc(Cl)ccc1NC(=O)CCCC(=O)C1CCC/C1=N\NC(=O)CC#N (centres undefined)

**Result**
["> 37.5 µM", "> 12.5 µM", "> 100 µM", "> 100 µM"]

###

- Tested on: DU-145 prostate
- testProtocol: NCI tumour cell line growth inhibition, 48 h
readoutName: TGI

Consider the worked cases shown below.
O=C(COc1ccc(OCC(=O)NNC2=NC(c3cc(F)c(Cl)cc3Cl)CS2)c(Cl)c1)NNC1=NC(c2cc(F)c(Cl)cc2Cl)CS1 (stereo not given)    59.8 µM
Clc1nc(Cl)c2c3c(sc2n1)CCCC3    > 100 µM
COC(=O)C(Cc1ccccc1)NP(=O)(O)OCC1OC(n2cc(I)c(=O)[nH]c2=O)CC1O (stereo not given)    > 100 µM
COc1cccc2c3ccccc3c3nc[nH]c3c12    > 100 µM

Then this molecule:
Field TGI (DU-145 prostate), entry "Cc1c(-c2ccccc2)c(C#N)c2nnn(C3CCCCC3)c(=O)n12" : > 100 µM

###

Answer each item with its documented TGI.
- Test system: DLD-1 colon
- testProtocol: NCI tumour cell line growth inhibition, 48 h

Consider the worked cases shown below.
O=C(Nc1c(C(=O)NC2CCCCC2)[nH]c(=O)[nH]c1=O)c1ccc(Cl)cc1    > 100 µM
C/C(=N\NS(=O)(=O)c1ccc(C)cc1)c1cc2ccccc2n1C    > 100 µM
CCOC(=O)/C(C#N)=C1/Sc2c(ncn(/N=C/c3ccc(OC)cc3)c2=O)N1c1ccccc1    > 100 µM
Cc1cc(C)n2c(-c3ccccc3)c(C)cc2n1    > 100 µM
Cc1ccc(NC(=O)CC/C(CC(=O)C(C)(C)C)=N/NC(=O)C[N+](C)(C)C)cc1C    > 100 µM
CC(=O)O[C@H]1C=CC(=O)C(C)CC1C (stereo partly drawn)    > 100 µM

For each of the compounds below, note its TGI.
1. O=C(/C=C/c1ccccc1Cl)c1cccc2ccccc12
2. C/C=C(/CCC1NCCC2c3ccccc3NC12)[Si](C)(C)C (stereo not drawn)

**Result**
1: 25.1 µM; 2: 17.1 µM
